tested on: windgrass (Apera spica-venti); assay: Test B postemergence plant response; assay type: in vivo; settings: Postemergence, 62 g ai/ha; scale 0 to 100 (0 no effect, 100 complete control)
quantity name: Plant response rating, Windgrass
// return just the number, without any unit appended

*Q* Please report the recorded Plant response rating, Windgrass for COc1ccc(-n2c(-c3ccccc3)ncc(C(=O)C3=C(O)CCCC3=O)c2=O)cc1OC .
*A* 20

*Q* Input CCCCn1c(-c2cccc(F)c2)ncc(C(=O)C2=C(O)C3CCC(C3)C2=O)c1=O (stereo not drawn)
*A* 90

*Q* What do you have for CCCCn1c(-c2cc(F)cc(F)c2)ncc(C(=O)C2=C(O)C3CCC(C3)C2=O)c1=O (stereo not drawn) ?
*A* 70

*Q* Subsequent entry: COCCCn1c(-c2cccc(F)c2)ncc(C(=O)C2=C(O)C3CCC(C3)C2=O)c1=O (stereo not drawn)
*A* 70

*Q* Repeat for the following molecule: CCn1c(-c2ccccc2)ncc(C(=O)C2=C(O)C3CCC(C3)C2=O)c1=O (stereo not drawn)
*A* 30

*Q* Subsequent entry: COCCn1c(-c2cccc(C)c2)ncc(C(=O)C2=C(O)C3CCC(C3)C2=O)c1=O (stereo not drawn)
*A* 55

* * *

Assignment: determine reported Plant response rating, Nightshade for the given molecules.
test system: nightshade (eastern black nightshade, Solanum ptycanthum); test: Test B pre-/postemergence plant response; type: in vivo; details: Preemergence, 31 g ai/ha; scale 0 to 100 (0 no effect, 100 complete control)
Could you keep your reply to the number by itself?

*Q* So what's the measured Plant response rating, Nightshade for this one? CCCCn1c(-c2cc(F)cc(F)c2)ncc(C(=O)C2=C(O)C3CCC(C3)C2=O)c1=O (centres unmarked)
*A* 98

*Q* Query CCCn1c(-c2cccs2)ncc(C(=O)C2=C(O)CCCC2=O)c1=O next
*A* 98

*Q* And what about the molecule CCCc1ncc(C(=O)C2=C(O)CCCC2=O)c(=O)n1-c1ccccc1C ?
*A* 75

*Q* Can you check Cc1ccccc1-n1c(-c2ccccc2)ncc(C(=O)C2=C(O)CCCC2=O)c1=O next?
*A* 100

*Q* Do the same for CCCCc1ncc(C(=O)C2=C(O)CCCC2=O)c(=O)n1-c1cccc(C)c1 please
*A* 80

* * *

Give measured Plant response rating, Ragweed for each item. Keep answers brief.
Tested on: ragweed (common ragweed, Ambrosia elatior)
Assay: Test B pre-/postemergence plant response
Format: in vivo
Details: Preemergence, 125 g ai/ha; scale 0 to 100, 0 no effect, 100 complete control
Excerpt: […] Treated plants and controls were maintained in a greenhouse for 13 to 15 days, after which time all treated plants were visually evaluated and compared to controls. […]
Answer as a number with no unit attached.

*Q* Requested read-out: Plant response rating, Ragweed. Entry: CCc1ccccc1-n1c(-c2ccccc2)ncc(C(=O)C2=C(O)CCCC2=O)c1=O [Compound 255]
*A* 85

*Q* What would you report for O=C1CCCC(O)=C1C(=O)c1cnc(-c2ccccc2)n(CC2CCCO2)c1=O (stereo not drawn) [Compound 59] ?
*A* 90

*Q* # repeat for O=C1CCCC(O)=C1C(=O)c1cnc(-c2ccsc2)n(-c2ccccc2)c1=O [Compound 56]
*A* 70

*Q* Follow-up entry: Cc1cc(-n2c(-c3ccccc3)ncc(C(=O)C3=C(O)CCCC3=O)c2=O)ccc1F [Compound 53]
*A* 85

*Q* What do you get for CCCn1c(-c2cccs2)ncc(C(=O)C2=C(O)CCCC2=O)c1=O [Compound 77] ?
*A* 90

*Q* Input CCCCc1ncc(C(=O)C2=C(O)CCCC2=O)c(=O)n1-c1cccc(C)c1 [Compound 63]
*A* 70

*Q* Moving on to O=C1CCCC(O)=C1C(=O)c1cnc(-c2cccc(Cl)c2)n(-c2ccc(Cl)cc2)c1=O [Compound 64]
*A* 75

*Q* Record: Cn1c(-c2ccccc2)ncc(C(=O)C2=C(O)CCCC2=O)c1=O [Compound 55]
*A* 85

*Q* Also check CCCc1ncc(C(=O)C2=C(O)CCCC2=O)c(=O)n1-c1ccccc1C [Compound 73]
*A* 75

* * *

tested on: bermudagrass (Cynodon dactylon); test: Test B pre-/postemergence plant response; assay type: in vivo; conditions: Postemergence, 250 g ai/ha; scale 0 to 100 (0 no effect, 100 complete control); 13 to 15 days
Would you kindly list Plant response rating, Bermudagrass for each of these compounds?
Lab note: write the figure by itself, no unit.

*Q* Which measured Plant response rating, Bermudagrass value corresponds to CCc1ccc(-n2c(-c3ccccc3)ncc(C(=O)C3=C(O)CCCC3=O)c2=O)cc1 ?
*A* 100

*Q* Queued: COCCn1c(-c2cccc(F)c2)ncc(C(=O)C2=C(O)C3CCC(C3)C2=O)c1=O (centres unmarked)
*A* 100

*Q* Same lookup for CCCCn1c(-c2cccc(F)c2)ncc(C(=O)C2=C(O)C3CCC(C3)C2=O)c1=O (centres unmarked) , please.
*A* 100

*Q* Moving on to COCCCn1c(-c2cccc(Br)c2)ncc(C(=O)C2=C(O)CCCC2=O)c1=O
*A* 90

*Q* Next compound up: CCCCn1c(-c2cc(F)cc(F)c2)ncc(C(=O)C2=C(O)C3CCC(C3)C2=O)c1=O (centres unmarked)
*A* 100

*Q* Now this one: COCCn1c(-c2cccc(Cl)c2)ncc(C(=O)C2=C(O)CCCC2=O)c1=O
*A* 98

*Q* Then this compound: Cc1cc(-n2c(-c3cccc(F)c3)ncc(C(=O)C3=C(O)CCCC3=O)c2=O)ccc1F
*A* 100

*Q* And what about the compound O=C1CCCC(O)=C1C(=O)c1cnc(-c2cccc(F)c2)n(C2CCCCC2)c1=O ?
*A* 100

* * *

tested on: canarygrass (Phalaris minor); assay: Test B postemergence plant response; assay type: in vivo; conditions: 31 g ai/ha, postemergence; scale 0 to 100, 0 is no effect, 100 is complete control
quantity name: Plant response rating, Canarygrass
// return just the number, without any unit appended

*Q* What does the record list as Plant response rating, Canarygrass for Cc1ccc(-c2ncc(C(=O)C3=C(O)CCCC3=O)c(=O)n2-c2ccccc2)cc1 ?
*A* 45

*Q* Also check CCCCCn1c(-c2ccccc2)ncc(C(=O)C2=C(O)CCCC2=O)c1=O
*A* 10

*Q* Continue with O=C1CCCC(O)=C1C(=O)c1cnc(-c2cccc(Cl)c2)n(-c2ccc(Cl)cc2)c1=O
*A* 40

*Q* Another compound to look at: CCCc1ncc(C(=O)C2=C(O)CCCC2=O)c(=O)n1-c1ccccc1C
*A* 0

*Q* Repeat with CC(C)n1c(-c2ccccc2)ncc(C(=O)C2=C(O)CCCC2=O)c1=O
*A* 0

*Q* Further, for CCCn1c(-c2cccs2)ncc(C(=O)C2=C(O)CCCC2=O)c1=O ?
*A* 0

*Q* Another compound: CCCCc1ncc(C(=O)C2=C(O)CCCC2=O)c(=O)n1-c1cccc(C)c1
*A* 0

*Q* Lookup COCCCn1c(-c2cccc(C)c2)ncc(C(=O)C2=C(O)CCCC2=O)c1=O
*A* 0

*Q* Can you handle Cc1cc(-n2c(-c3ccccc3)ncc(C(=O)C3=C(O)CCCC3=O)c2=O)ccc1F next?
*A* 40

*Q* Record: COCCCn1c(-c2cc(F)cc(F)c2)ncc(C(=O)C2=C(O)CCCC2=O)c1=O
*A* 0

* * *

tested on: umbrella sedge (Cyperus difformis); test: Test B flooded paddy test; type: in vivo; conditions: 250 g ai/ha; flooded paddy test; visual rating on 0 to 100 scale (0 no effect, 100 complete control) after 13 to 15 days
quantity name: Plant response rating, Flood, Sedge, Umbrella
Answer field: number only, no words.

*Q* Data request, read-out Plant response rating, Flood, Sedge, Umbrella, for CCCCCc1ncc(C(=O)C2=C(O)CCCC2=O)c(=O)n1-c1ccccc1
*A* 40

*Q* And then O=C1CCCC(O)=C1C(=O)c1cnc(-c2ccccc2)n(C2CCSCC2)c1=O , what is it?
*A* 90

*Q* Now this one: O=C1CCCC(O)=C1C(=O)c1cnc(-c2cccc(C(F)(F)F)c2)n(C2CCCCC2)c1=O
*A* 65

*Q* Do the same for COCCn1c(-c2cc(F)cc(F)c2)ncc(C(=O)C2=C(O)CCCC2=O)c1=O please
*A* 75

*Q* What do you have for COCCCn1c(-c2cc(F)cc(F)c2)ncc(C(=O)C2=C(O)CCCC2=O)c1=O ?
*A* 75

*Q* Moving on to the next molecule: CC(C)CC(=O)OC1=C(C(=O)c2cnc(-c3ccccc3)n(-c3ccccc3)c2=O)C(=O)CCC1
*A* 50

*Q* One more molecule: CCCCn1c(-c2cccc(F)c2)ncc(C(=O)C2=C(O)CCCC2=O)c1=O
*A* 90

*Q* Same lookup for CCCn1c(-c2cc(C)cc(C)c2)ncc(C(=O)C2=C(O)CCCC2=O)c1=O , please.
*A* 100

* * *

system: downy bromegrass (Bromus tectorum); experiment: Test B pre-/postemergence plant response; format: in vivo; conditions: Postemergence, 250 g ai/ha; scale 0 to 100 (0 no effect, 100 complete control)
Quick rule for you: Plant response rating, Bromegrass, Downy at 40 or higher means Fulfilled, lower means Not fulfilled.

*Q* Can O=C1CCCC(O)=C1C(=O)c1cnc(-c2ccccc2)n(CC2CCCO2)c1=O (centres unmarked) be said to have Plant response rating, Bromegrass, Downy at or above 40?
*A* Fulfilled

*Q* Quick one: COCC(C)n1c(-c2ccccc2)ncc(C(=O)C2=C(O)CCCC2=O)c1=O (centres unmarked)
*A* Not fulfilled

*Q* Another compound to check: COCCCn1c(-c2cccc(C)c2)ncc(C(=O)C2=C(O)CCCC2=O)c1=O
*A* Not fulfilled

*Q* Would you mind doing CC(C)n1c(-c2ccccc2)ncc(C(=O)C2=C(O)CCCC2=O)c1=O as well?
*A* Not fulfilled

*Q* Also Cc1ccc(-c2ncc(C(=O)C3=C(O)CCCC3=O)c(=O)n2-c2ccccc2)cc1 , if possible.
*A* Fulfilled

*Q* What about Cn1c(-c2ccccc2)ncc(C(=O)C2=C(O)CCCC2=O)c1=O ?
*A* Not fulfilled

*Q* Request: Cc1ccccc1-c1ncc(C(=O)C2=C(O)CCCC2=O)c(=O)n1-c1ccccc1
*A* Not fulfilled

*Q* Okay, and CCCc1ncc(C(=O)C2=C(O)CCCC2=O)c(=O)n1-c1ccccc1C ?
*A* Fulfilled

*Q* Lookup COCCn1c(-c2cccc(F)c2)ncc(C(=O)C2=C(O)CCCC2=O)c1=O
*A* Fulfilled

*Q* Same read-out for COCCn1c(-c2cc(F)cc(F)c2)ncc(C(=O)C2=C(O)CCCC2=O)c1=O ?
*A* Fulfilled

*Q* Moving on to CCCc1ncc(C(=O)C2=C(O)CCCC2=O)c(=O)n1CC1CCCO1 (centres unmarked)
*A* Not fulfilled

Where do these numbers come from? They come from patent US8952024B2.
